test: endothelial E-selectin expression blockers – imaging, HUVEC, immunofluorescence, MLSMR starter and 10KST1 sets, primary screen (AID 487); conditions: HUVEC TNFalpha-induced E-selectin immunofluorescence imaging, at 2 µM; active compounds read high;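 also: signal is fraction of cell area covered by stained E-selectin grains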
Active and inactive are the calls of the source.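 The calls were made as follows: active = visually confirmed hit in the image check and inhibition above 20%; inconclusive = visually confirmed hit but inhibition not above 20%; inactive = no visual hit in the image check.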
REPORTED_METRIC: inhibition

COMPOUND	REPORTED_METRIC	RESULT
Cc1cc2c(cc(C(=O)OCC(=O)NCc3cccs3)n2C(C)C)o1	inhibition	-156% (inactive)
CCCNC(=O)C1CC(=O)N(c2ccc(OCC(=O)Nc3cc(C)cc(C)c3)cc2)C1 (stereo not given)	inhibition	-6.3% (inactive)
CCOC(=O)c1c(C)oc2ccc(OCC(N)=O)cc12	inhibition	20.4% (inactive)

Here's the next entry for you.
Prompt line: Input Cc1cc(C)n2nc(SCC(=O)N(C)c3ccccc3)nc2n1 , output reported inhibition.
Response line: -24.2% (inactive)
